A collection of molecules and their measured log p [c]
Assay text: logP by HPLC on reversed-phase columns (EEC Directive 79/831 Annex V.A8)
Type: physicochemical
Run conditions: pH 7.8
Description: The logP values were measured in accordance with EEC Directive 79/831 Annex V.A8 by HPLC (High Performance Liquid Chromatography) on reversed-phase columns (C 18) using the methods below: [a] The determination was carried out in the acidic range at pH 2.3 using the mobile phases 0.1% aqueous phosphoric acid and acetronitrile linear gradient from 10% acetonitrile to 95% acetronitrile. [b] […]
Assay readout: log p [c]

molecule="Clc1cnc(Nc2cccc(C3OCC(c4ccccc4)O3)c2)nc1NC1CC1 (stereo not drawn)" assay_readout="log p [c]" result=3.93[c]
molecule="CC(C)(C)C1COC(c2cccc(Nc3ncc(Cl)c(NC4CC4)n3)c2)O1 (stereo not drawn)" assay_readout="log p [c]" result=4.34[c]
molecule=CC(C)OC(OC(C)C)c1cccc(Nc2ncc(Cl)c(NC3CC3)n2)c1 assay_readout="log p [c]" result=4.44[c];
